Values were extracted from patent US7906310B2.

- Test method notes: pNA assay: protease activity with 1 mM Cu2+ relative to control without Cu2+
- Format: biochemical
- Test parameters: activity with 1 mM Cu2+ relative to control without Cu2+; enzyme 1 mg/l; Suc-AAPF-pNA; pH 7, 25° C.
- Protocol: Protease activity is measured using the substrate Suc-AAPF-pNA, in assay buffer at pH 7.0 and 25° C. For more details, please refer to the pNA assay described in Example 4, which also describes in detail the determination according to i) and ii). Feature ii) is determined as the enzyme activity in the presence of 1 mM Cu^2+, relative to the activity of the same enzyme under the same conditions, except for the presence of Cu^2+. […]
Reported endpoint: Relative Activity
Hey, just send me the number, nothing else.

Protease 35: protease from Nocardiopsis prasina DSM 15649, amino acids 1-188 of SEQ ID NO: 8 (protein, listed as Nocardiopsis prasina) ATGPLPQSPTPEADAVSMQEALQRDLGLTPLEADELLAAQDTAFEVDEAAAEAAGDAYGGSVFDTETLELTVLVTDSAAVEAVEATGAGTELVSYGITGLDEIVEELNAADAVPGVVGWYPDVAGDTVVLEVLEGSGADVGGLLADAGVDASAVEVTTTEQPELYADIIGGLAYTMGGRCSVGFAATN    0.687

Kindly consider the entry below.
Requested read-out: Relative Activity. Entry: Metarhizium protease: known protease derived from Metarhizium anisopliae, amino acids 1-188 of SEQ ID NO: 4 (protein, listed as Metarhizium anisopliae) MELTKFLALLAVILPVAYGAPTQAASLHPQILEAMKRDLGLNAEQATVRVAREIHATDVIEQLRSSVAFAGAWIDADVLYIGITDQALADEVTAAGATPIVMTNSLSKLEKAKEDLDKIFIGRANTLETSSDTSSGIASYFVDVAANKLVIEALADSHGHAEQLAAQVGLTSEFEVRTVETMPTTMAT
0.612
